METHOD SUMMARY: Half life period in phosphate buffer (pH 7.4)
Assay type: ADME
Recorded half-life, one value per entry.
Please state the figure in h; there is no need to write the unit.

>>> value_reported("CN(C(=O)N(CCCl)N=O)C1CCC(C(=O)O)CC1 (configuration not stated)")
4.5

// switching to the query compound
Given item O=NN(CCCl)C(=O)NC1CCC(C(=O)O)CC1 (configuration not stated) , the value recorded as its half-life is 46
